- Tested on: Klebsiella pneumonia
- EXPERIMENT_SUMMARY: MIC against Gram-negative bacteria: Klebsiella pneumonia
- Format: cell-based
- CONDITION_CONTEXT: Klebsiella pneumonia; 96-well plate, 5×10^5 CFU/mL, 37° C., 10 h
ATTRIBUTE_MEASURED: MIC (μg/mL) K. pneumonia

Check out these entries, answers already filled in.
Value of measured MIC (μg/mL) K. pneumonia for the entry PRT15 (GDHPCLPNPCHGGAPCQNLEAGRFHCQCPPGRVGPTCA; listed as Homo sapiens) : 12.5 µg/mL

Value of measured MIC (μg/mL) K. pneumonia for the entry PRT22 (WCEDNGGCEQICTSRVDGPLCSCVTGTLQEDGKSCR; listed as Homo sapiens) : 12.5 µg/mL

Value of measured MIC (μg/mL) K. pneumonia for the entry PRT114 (PKYGCNFNNGGCHQDCFEGGDGSFLCGCRPGFRLLDDLVTCA; listed as Homo sapiens) : 25 µg/mL

Value of measured MIC (μg/mL) K. pneumonia for the entry PRT58 (PCALGEGPACAHCAPDNSTRCGSCNPGYVLAQGLCR; listed as Homo sapiens) : 12.5 µg/mL

Value of measured MIC (μg/mL) K. pneumonia for the entry PRT82 (CDCYPTGSLSRVCDPEDGQCPCKPGVIGRQCDRCDNPFAEVTTNGCEV; listed as Homo sapiens) : 50 µg/mL

New cases:
Value of measured MIC (μg/mL) K. pneumonia for the entry PRT36 (PVRDCSKDNGGCSKNFRCISDRKLDSTGCVCPSGLSPMKDSSGCY; listed as Homo sapiens) : 12.5 µg/mL

Value of measured MIC (μg/mL) K. pneumonia for the entry PRT70 (VDDPCTSSPCPPNSRCHDAWEDYSCVCDKGYLGINC; listed as Homo sapiens) : 25 µg/mL

Value of measured MIC (μg/mL) K. pneumonia for the entry PRT24 (ELDLCYSNPCRNGGACARREGGYTCVCRPRFTGEDCE; listed as Homo sapiens) : 25 µg/mL

Value of measured MIC (μg/mL) K. pneumonia for the entry PRT77 (RSGRCTPGVCKNGGTCVNLLVGGFKCDCPSGDFEKPYCQ; listed as Homo sapiens) : 50 µg/mL

Value of measured MIC (μg/mL) K. pneumonia for the entry PRT143 (PRNPCRMSCQNHGRLNISTCHCHCPPGYTGRYCQ; listed as Homo sapiens) : 12.5 µg/mL

Value of measured MIC (μg/mL) K. pneumonia for the entry PRT118 (DVDECVGPGGPLCDSLCFNTQGSFHCGCLPGWVLAPNGVSCT; listed as Homo sapiens) : 12.5 µg/mL

Value of measured MIC (μg/mL) K. pneumonia for the entry PRT1497 (KPVCEPGCGAHGTCHEPNKCQCQEGWHGRHCN; listed as Homo sapiens) : 50 µg/mL

Value of measured MIC (μg/mL) K. pneumonia for the entry PRT107 (DRCLPSYCEHGGECSQSWDTFSCDCLGTGYTGETC; listed as Homo sapiens) : 12.5 µg/mL

Value of measured MIC (μg/mL) K. pneumonia for the entry PRT97 (DSRGCARWCPQNSSCVNATACRCNPGFSSFSEIITTPTETCD; listed as Homo sapiens) : 12.5 µg/mL

Value of measured MIC (μg/mL) K. pneumonia for the entry PRT63 (GCNFNNGGCHQDCFEGGDGSFLCGCRPGFRLLDDLVTCA; listed as Homo sapiens) : 25 µg/mL

Value of measured MIC (μg/mL) K. pneumonia for the entry PRT60 (EVDECSRPNRGGCEQRCLNTLGSYKCSCDPGYELAPDKRRCE; listed as Homo sapiens) : 12.5 µg/mL

---

- Test system: Serratia marcescens
- EXPERIMENT_SUMMARY: MIC against Gram-negative bacteria: Serratia marcescens
- Type: cell-based
- CONDITION_CONTEXT: 96-well plate, 5×10^5 CFU/mL, 37° C., 10 h
- Method: 1. Gram-negative bacteria, such as E. coli BL21, Pseudomonas aeruginosa, Klebsiella pneumonia, Enterobacter cloacae, Aeromonas hydrophila, Citrobacter diversus, Moraxella catarrhalis, Proteus mirabilis, Proteus vulgaris, Serratia marcescens, etc were streaked on solid LB medium and cultured respectively. Then, typical clones were picked, inoculated into common liquid LB medium respectively, and cultured at 37° C. with shaking at 185 rpm until the McFarland specific turbidity was 0.5. […]
ATTRIBUTE_MEASURED: MIC against S. marcescens
Please append the unit to your numeric answer.

Check out these entries, answers already filled in.
Value of measured MIC against S. marcescens for the entry PRT469 (NCSTTCFNGGTCFYPGKCICPPGLEGEQCE; listed as Homo sapiens) : 12.5 µg/mL

Value of measured MIC against S. marcescens for the entry PRT493 (CDCPHTQNTCDPETGECVCPPHTQGVKCEECEDGHWGYDAEVGCQA; listed as Homo sapiens) : 25 µg/mL

Value of measured MIC against S. marcescens for the entry PRT452 (DIDECTEMPFVCSQKCENVIGSYICKCAPGYLREPDGKTC; listed as Homo sapiens) : 50 µg/mL

Please examine the following record next.
Value of measured MIC against S. marcescens for the entry PRT554 (CNCESDFTDGTCEDLTGRCYCRPNFSGERCDVCAEGFTGFPSCYPT; listed as Homo sapiens) : 25 µg/mL

---

- System: Enterobacter cloacae
- EXPERIMENT_SUMMARY: MIC against Gram-negative bacteria: Enterobacter cloacae
- Format: cell-based
- CONDITION_CONTEXT: E. cloacae; 10 h cultivation at 37° C.
Reported MIC values follow for various substances
Expressed in µg/mL, but write only the number.

Value of measured MIC for the entry PRT1027 (PGNPCYDGSHMCDTTARCHPGTGVDYTCECASGYQGDGRNCV; listed as Homo sapiens) : 50

Value of measured MIC for the entry PRT905 (DVNECDSQPCLHGGTCQDGCGSYRCTCPQGYTGPNCQ; listed as Homo sapiens) : 50

Value of measured MIC for the entry PRT1033 (LYVPCAPSPCVNGGTCRQTGDFTFECNCLPETVRRGTE; listed as Homo sapiens) : 50

Value of measured MIC for the entry PRT941 (EINECSSHPCLNEGTCVDGLGTYRCSCPLGYTGKNCQ; listed as Homo sapiens) : 12.5

Value of measured MIC for the entry PRT1039 (SSGICDEASCIHGGTCTAIKADSYICLCPLGFKGRHCE; listed as Homo sapiens) : 25

---

- Test system: Citrobacter diversus
- EXPERIMENT_SUMMARY: MIC against Gram-negative bacteria: Citrobacter diversus
- Type: cell-based
- CONDITION_CONTEXT: Citrobacter diversus; 96-well plate, 5×10^5 CFU/mL, 37° C., 10 h
ATTRIBUTE_MEASURED: MIC against C. diversus (µg/mL)
Expressed in µg/mL, but write only the number.

Value of measured MIC against C. diversus for the entry PRT1257 (CMNKDHGCAHICRETPKGGVACDCRPGFDLAQNQKDC; listed as Homo sapiens) : 50

Value of measured MIC against C. diversus for the entry PRT1329 (LPAVCTPPCSAHATCKENNTCECNLDYEGDGITCT; listed as Homo sapiens) : 25

Value of measured MIC against C. diversus for the entry PRT1269 (DIDECQTRNGGCDHFCKNIVGSFDCGCKKGFKLLTDEKSCQ; listed as Homo sapiens) : 12.5

Please examine the following record next.
Value of measured MIC against C. diversus for the entry PRT1310 (EINSCLIHHGGCHIHAECIPTGPQQVSCSCREGYSGDGIRTCE; listed as Homo sapiens) : 25

---

- Tested on: Proteus mirabilis
- EXPERIMENT_SUMMARY: MIC against Gram-negative bacteria: Proteus mirabilis
- Type: cell-based
- CONDITION_CONTEXT: P. mirabilis; 10 h cultivation at 37° C.; 5×10^5 CFU/mL
- Experimental: 1. Gram-negative bacteria, such as E. coli BL21, Pseudomonas aeruginosa, Klebsiella pneumonia, Enterobacter cloacae, Aeromonas hydrophila, Citrobacter diversus, Moraxella catarrhalis, Proteus mirabilis, Proteus vulgaris, Serratia marcescens, etc were streaked on solid LB medium and cultured respectively. Then, typical clones were picked, inoculated into common liquid LB medium respectively, and cultured at 37° C. with shaking at 185 rpm until the McFarland specific turbidity was 0.5. […]
ATTRIBUTE_MEASURED: MIC (μg/mL) P. mirabilis (µg/mL)
Expressed in µg/mL, but write only the number.

Check out these entries, answers already filled in.
Value of measured MIC (μg/mL) P. mirabilis for the entry PRT247 (GAAICQPPCRNGGSCVQPGRCRCPAGWRGDTCQ; listed as Homo sapiens) : 25

Value of measured MIC (μg/mL) P. mirabilis for the entry PRT259 (GGCHTDALCSYVGPGQSRCTCKLGFAGDGYQC; listed as Homo sapiens) : 25

Value of measured MIC (μg/mL) P. mirabilis for the entry PRT805 (FGQNCSQDCPCHHGGQCDHVTGQCHCTAGYMGDRCQ; listed as Homo sapiens) : 12.5

Value of measured MIC (μg/mL) P. mirabilis for the entry PRT803 (HGKGCQLPCQCRHGASCDPRAGECLCAPGYTGVYCE; listed as Homo sapiens) : 50

Value of measured MIC (μg/mL) P. mirabilis for the entry PRT806 (FGFQCSQHCDCHNGGQCSPTTGACECEPGYKGPRCQ; listed as Homo sapiens) : 12.5

Value of measured MIC (μg/mL) P. mirabilis for the entry PRT790 (HGPQCEQRCPCQNGGVCHHVTGECSCPSGWMGTVCG; listed as Homo sapiens) : 12.5

Value of measured MIC (μg/mL) P. mirabilis for the entry PRT218 (DINECDASNQCAQQCYNILGSFICQCNQGYELSSDRLNCE; listed as Homo sapiens) : 25

Value of measured MIC (μg/mL) P. mirabilis for the entry PRT161 (KVDPCASSPCQNNGTCYVDGVHFTCNCSPGFTGPTCA; listed as Homo sapiens) : 25

Value of measured MIC (μg/mL) P. mirabilis for the entry PRT784 (FGKNCAGICTCTNNGTCNPIDRSCQCYPGWIGSDCS; listed as Homo sapiens) : 12.5

Value of measured MIC (μg/mL) P. mirabilis for the entry PRT230 (DVDECADPRACPEHATCNNTVGNYSCFCNPGFESSSGHLSFQGLKASCE; listed as Homo sapiens) : 50

New cases:
Value of measured MIC (μg/mL) P. mirabilis for the entry PRT237 (DINECTPPYSVYCGFNAVCYNVEGSFYCQCVPGYRLHSGNEQFSNSNENTCQ; listed as Homo sapiens) : 25

Value of measured MIC (μg/mL) P. mirabilis for the entry PRT187 (KVDRCTSNPCANGGQCLNRGPSRMCRCRPGFTGTYCE; listed as Homo sapiens) : 25

Value of measured MIC (μg/mL) P. mirabilis for the entry PRT807 (YGDGCQLPCTCQNGADCHSITGGCTCAPGFMGEVCA; listed as Homo sapiens) : 12.5

Value of measured MIC (μg/mL) P. mirabilis for the entry PRT260 (CRAGNGGCHGLATCRAVGGGQRVCTCPPGFGGDGFSC; listed as Homo sapiens) : 12.5

Value of measured MIC (μg/mL) P. mirabilis for the entry PRT785 (IHTCNCHNGAFCSAYDGECKCTPGWTGLYCT; listed as Homo sapiens) : 50

Value of measured MIC (μg/mL) P. mirabilis for the entry PRT200 (NFSTCLSSKEGTICSGNGVCSNELKCVCNRHWIGSDCN; listed as Homo sapiens) : 12.5
